Target: human Orexin 1 receptor (Homo sapiens, UniProt O43613)
Construct: CHO-K1 cells stably expressing the full-length human Orexin 1 receptor and the aequorin photoprotein; expressed in transfected cells; host or cells: CHO-K1 (CHO-K1/hOx1)
Sequence (O43613 whole entry): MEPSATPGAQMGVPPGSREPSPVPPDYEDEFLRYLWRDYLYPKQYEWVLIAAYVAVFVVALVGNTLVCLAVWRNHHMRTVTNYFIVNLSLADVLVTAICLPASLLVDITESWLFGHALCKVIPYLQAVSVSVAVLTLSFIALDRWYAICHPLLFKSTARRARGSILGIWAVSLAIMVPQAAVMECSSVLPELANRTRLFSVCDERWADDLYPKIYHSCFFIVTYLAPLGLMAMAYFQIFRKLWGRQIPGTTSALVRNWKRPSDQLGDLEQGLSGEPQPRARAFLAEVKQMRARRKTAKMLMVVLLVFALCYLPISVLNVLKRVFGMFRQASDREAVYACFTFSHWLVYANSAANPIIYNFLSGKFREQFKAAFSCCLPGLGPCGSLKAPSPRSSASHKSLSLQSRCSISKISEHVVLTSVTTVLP
Test: Assay A: in vitro testing of OX1R potency, OX1R IP1
Assay type: cell-based
Settings: Table 4a; 50 nM Orexin A
Listing of recorded Kb by entry.

[
  {
    "STRUCTURE_SMILES_STRING": "CCN(C(=O)c1nc(C)sc1-c1ccccc1)[C@@H](C)CNc1ncc(C(F)(F)F)cn1",
    "TEST_TARGET": "human Orexin 1 receptor (Homo sapiens, UniProt O43613)",
    "Kb": "0.013 nM"
  },
  {
    "STRUCTURE_SMILES_STRING": "CCN(C(=O)c1ccc(OC)cc1-n1nccn1)[C@@H](C)CNc1ncc(C(F)(F)F)cn1",
    "TEST_TARGET": "human Orexin 1 receptor (Homo sapiens, UniProt O43613)",
    "Kb": "0.091 nM"
  },
  {
    "STRUCTURE_SMILES_STRING": "CCN(C(=O)c1cccc(F)c1-n1nccn1)[C@@H](C)CNc1ccc(C(F)(F)F)cn1",
    "TEST_TARGET": "human Orexin 1 receptor (Homo sapiens, UniProt O43613)",
    "Kb": "0.0044 nM"
  },
  {
    "STRUCTURE_SMILES_STRING": "CCN(C(=O)c1cccc(F)c1-n1nccn1)[C@@H](C)CNc1ccc(Cl)cn1",
    "TEST_TARGET": "human Orexin 1 receptor (Homo sapiens, UniProt O43613)",
    "Kb": "0.043 nM"
  }
]

###

Target: human orexin 2 receptor (Homo sapiens)
Construct: CHO-K1 cells stably expressing the full-length human orexin 2 receptor and the aequorin photoprotein; expressed in transfected cells; host or cells: CHO-K1 (CHO-K1/hOx2)
Sequence (O43614 1-444): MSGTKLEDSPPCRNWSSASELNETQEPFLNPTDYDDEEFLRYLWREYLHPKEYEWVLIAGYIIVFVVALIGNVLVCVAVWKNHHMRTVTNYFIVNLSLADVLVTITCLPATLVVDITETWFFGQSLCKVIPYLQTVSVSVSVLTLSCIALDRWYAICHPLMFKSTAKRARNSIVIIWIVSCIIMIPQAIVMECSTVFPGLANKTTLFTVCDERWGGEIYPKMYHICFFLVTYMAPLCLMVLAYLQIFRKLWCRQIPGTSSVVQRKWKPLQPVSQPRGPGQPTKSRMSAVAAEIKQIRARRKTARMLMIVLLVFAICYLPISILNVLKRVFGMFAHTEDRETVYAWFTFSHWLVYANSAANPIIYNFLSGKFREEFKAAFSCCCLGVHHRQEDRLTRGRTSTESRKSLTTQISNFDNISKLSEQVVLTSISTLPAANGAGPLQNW
Assay: Assay B: in vitro testing of OX2R potency, OX2R IP1
Assay type: cell-based
Conditions: Table 4a; 0.5 nM Orexin A

[
  {
    "MOLECULE": "CCN(C(=O)c1nc(C)sc1-c1ccccc1)[C@@H](C)CNc1ncc(C(F)(F)F)cn1 [Example 6]",
    "VALUE_UNIT": "nM",
    "Kb": 7.03
  },
  {
    "MOLECULE": "CCN(C(=O)c1cc(F)ccc1-c1ncccn1)[C@@H](C)CNc1ncc(C(F)(F)F)cc1F [Example 13]",
    "VALUE_UNIT": "nM",
    "Kb": 5.16
  },
  {
    "MOLECULE": "CCN(C(=O)c1cccc(F)c1-n1nccn1)[C@@H](C)CNc1ccc(C(F)(F)F)cn1 [Example 15]",
    "VALUE_UNIT": "nM",
    "Kb": 3.86
  },
  {
    "MOLECULE": "CCN(C(=O)c1cccc(F)c1-c1ncccn1)[C@@H](C)CNc1ccc(F)c(C(F)(F)F)n1 [Example 12]",
    "VALUE_UNIT": "nM",
    "Kb": 4.15
  },
  {
    "MOLECULE": "CCN(C(=O)c1cc(C)ccc1-n1nccn1)[C@@H](C)CNc1ncc(C(F)(F)F)cn1 [Example 2]",
    "VALUE_UNIT": "nM",
    "Kb": 4.14
  }
]
